Please provide measured growth inhibition for the entries that follow.
# ASSAY DETAILS: NCI Yeast Anticancer Drug Screen. Data for the rad50 strain (AID 155);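 also: 0% = growth of vehicle-only cultures of the same strain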
# SETUP CONDITIONS: S. cerevisiae rad50 strain growth inhibition; at 50.0 µM; active compounds read high
About 79,000 compounds went through this panel and 15% of them were active in at least one assay; those are over-represented in the sample as a whole. Calls of active or inactive are those of the source. Rule as the data show it: active = growth inhibition above about 70%; inactive = the rest.

COMPOUND: Oc1ccccc1-c1nnc2n1N=C(c1ccc(-c3ccccc3)cc1)CS2
READING: 32.5% (inactive)
//
COMPOUND: CCOC(=O)CNCc1cccc(C)c1
READING: -1.45% (inactive)
//
COMPOUND: CCCCCCCCCCCCCCCC[N+](C)(C)CC#CCCl
READING: -3.15% (inactive)
//
COMPOUND: O=C1C(O)=C(c2ccccc2)C(=O)N1c1ccccc1
READING: -25.2% (inactive)
//
COMPOUND: COc1ccc(C2OC3=C(Nc4ccc(Cl)cc4N3)C2=O)cc1 (stereo not drawn)
READING: -1.9% (inactive)
//
COMPOUND: CCCCCCCCCCCCCCCCCC1(c2ccccc2)NC(=O)NC1=O (stereo not drawn)
READING: 9.5% (inactive)
//
COMPOUND: Cc1nc(C(=O)O)c2ccccc2n1
READING: -2.8% (inactive)
//
COMPOUND: CC(=O)OCC1OC(n2c(O)c(/C=C3\C=Nc4ccccc43)sc2=S)C(OC(C)=O)C(OC(C)=O)C1OC(C)=O (stereo not drawn)
READING: 20.4% (inactive)

Parameter requested: growth inhibition. Apply to each item below.
1. CN(/N=C/c1ccccn1)C1=NCCCN1
2. OC1(C#Cc2ccccc2)c2ccccc2C(O)(C#Cc2ccccc2)c2ccccc21 (stereo not drawn)
3. [N-]=[N+]=Nc1cc(=O)n(-c2ccccc2)c(=O)n1-c1ccccc1
4. CCOc1ccc2c(N=[N+]=[N-])cc(C)nc2c1
5. OC1(C#CC2(O)CCCC2)CCCC1
6. O=C(NCCCl)Oc1ccccc1
7. N#Cc1c(-c2ccccc2)[nH]c2ccc(Cl)cc2c1=O

Ans:
1: -20.2% (inactive); 2: 9.95% (inactive); 3: 9.5% (inactive); 4: -46.1% (inactive); 5: -8.9% (inactive); 6: 6.85% (inactive); 7: 6.6% (inactive)

Parameter requested: growth inhibition. Apply to each item below.
1. CS(=O)(=O)c1ccc2c(c1)-c1ccc([N+](=O)[O-])cc1C2=O
2. CCOC(=O)NC(=O)c1cn(CCN2CCN(C(=O)CCCCCCCCCCNc3ncnc4nc[nH]c34)CC2)c(=O)[nH]c1=O
3. CCOc1ccc(C(C)(C)c2cc3c(cc2OC)OCO3)cc1
4. NC(=O)c1cc2ccccc2[n+](Cc2ccc(F)cc2)c1
5. CCCC1OC(c2ccc(OC)cc2)OCC1CC (stereo not drawn)
6. C=C1C(=O)C23C(O)CC4C(C)(C)[C@@H](OC(C)=O)CCC4(C)[C@]2(O)CCC1[C@@H]3O (stereo partly drawn)
7. O=C(O)CCC(=O)NNC(=O)CCC(=O)O

Ans:
["12.7% (inactive)", "-18.5% (inactive)", "-16.2% (inactive)", "-0.2% (inactive)", "2.65% (inactive)", "46.8% (inactive)", "16.2% (inactive)"]

Q: // fetch growth inhibition given entry COC(=O)C1(C(=O)OC)OC(c2ccc(OC)cc2)[C@H]2C(=O)N(C)C(=O)[C@H]21 (stereo partly drawn)
Ans: 2.75% (inactive)
